FYI, the data here is from patent US11999727B2.

biological target: PRMT5 (Homo sapiens, UniProt O14744); construct: purchased Viva (custom protein); experiment: PRMT5 biochemical IC50 assay with MTA as cofactor; conditions: PRMT5, MTA as cofactor; read-out: MTA IC50
Sequence (O14744 whole entry): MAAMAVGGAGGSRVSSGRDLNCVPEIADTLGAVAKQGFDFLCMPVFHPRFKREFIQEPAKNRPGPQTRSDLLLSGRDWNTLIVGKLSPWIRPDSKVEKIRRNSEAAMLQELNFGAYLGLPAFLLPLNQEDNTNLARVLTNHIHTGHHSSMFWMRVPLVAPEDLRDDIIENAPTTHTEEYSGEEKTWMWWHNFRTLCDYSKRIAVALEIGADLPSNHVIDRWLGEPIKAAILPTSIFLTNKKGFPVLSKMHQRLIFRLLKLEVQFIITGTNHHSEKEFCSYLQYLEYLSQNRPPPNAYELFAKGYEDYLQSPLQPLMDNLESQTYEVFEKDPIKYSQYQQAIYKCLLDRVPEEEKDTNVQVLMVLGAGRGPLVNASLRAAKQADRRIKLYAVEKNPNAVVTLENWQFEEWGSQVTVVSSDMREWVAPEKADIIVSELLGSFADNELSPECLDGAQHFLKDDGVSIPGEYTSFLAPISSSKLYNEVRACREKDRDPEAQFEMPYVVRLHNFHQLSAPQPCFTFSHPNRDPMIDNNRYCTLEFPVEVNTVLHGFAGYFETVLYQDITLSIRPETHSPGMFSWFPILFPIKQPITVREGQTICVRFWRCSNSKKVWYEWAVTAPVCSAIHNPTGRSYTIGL
Sequence (Q9BQA1 whole entry partner): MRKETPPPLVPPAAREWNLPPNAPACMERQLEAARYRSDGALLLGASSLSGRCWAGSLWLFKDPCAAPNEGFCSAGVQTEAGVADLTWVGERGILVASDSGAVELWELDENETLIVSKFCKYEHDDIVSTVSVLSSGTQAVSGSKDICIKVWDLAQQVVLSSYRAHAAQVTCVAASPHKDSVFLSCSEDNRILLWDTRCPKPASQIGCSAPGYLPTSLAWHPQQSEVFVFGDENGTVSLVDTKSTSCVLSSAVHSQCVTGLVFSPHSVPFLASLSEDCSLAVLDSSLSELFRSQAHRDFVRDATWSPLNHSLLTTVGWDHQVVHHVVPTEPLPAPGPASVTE
pIC50: −log10 of the molar value.
The entries below come with measured pIC50 values attached.

| MOLECULE | pIC50 |
| --- | --- |
| CCc1cc(NC(=O)C(=O)N2C[C@@H](C)CC[C@@H]2c2cccc(OCCCN(C)C)c2)cnc1N | > 7.30 |
| Cc1cncc(NC(=O)C(=O)N2C[C@@H](C)CC[C@@H]2c2cccs2)c1 (single isomer, unassigned) [Compound 76] | < 6.30 |
| NC(=O)c1cncc(NC(=O)C(=O)N2C[C@@H]3CC[C@@H](C3)[C@@H]2c2ccccc2)c1 (single isomer, unassigned) | 6.30 to 7.30 |
| Cc1cc(NC(=O)C(=O)N2C[C@H](C)CC[C@H]2c2ccc(CO)cc2)cnc1N (single isomer, unassigned) | < 6.30 |
| Cc1cc(NC(=O)C(=O)N2C[C@H](C)CC[C@H]2c2ccn(-c3ccn[nH]3)n2)cnc1N (racemic) | 6.30 to 7.30 |
| C[C@H]1CC[C@H](c2ccc3sc(C4CCN(C)CC4)nc3c2)N(C(=O)C(=O)Nc2cnc(N)c([C@H]3CCOC3)c2)C1 (single isomer, unassigned) | > 7.30 |
